molecular target: FGFR1 active kinase (Homo sapiens, UniProt P11362); assay: FGFR Kinase assay - Caliper; assay type: biochemical; conditions: FGFR1 […], 408 uM ATP; mean of n as printed; read-out: FGFR Kinase assay - Caliper, IC50; note: 408 µM ATP
Sequence (P11362 22-822): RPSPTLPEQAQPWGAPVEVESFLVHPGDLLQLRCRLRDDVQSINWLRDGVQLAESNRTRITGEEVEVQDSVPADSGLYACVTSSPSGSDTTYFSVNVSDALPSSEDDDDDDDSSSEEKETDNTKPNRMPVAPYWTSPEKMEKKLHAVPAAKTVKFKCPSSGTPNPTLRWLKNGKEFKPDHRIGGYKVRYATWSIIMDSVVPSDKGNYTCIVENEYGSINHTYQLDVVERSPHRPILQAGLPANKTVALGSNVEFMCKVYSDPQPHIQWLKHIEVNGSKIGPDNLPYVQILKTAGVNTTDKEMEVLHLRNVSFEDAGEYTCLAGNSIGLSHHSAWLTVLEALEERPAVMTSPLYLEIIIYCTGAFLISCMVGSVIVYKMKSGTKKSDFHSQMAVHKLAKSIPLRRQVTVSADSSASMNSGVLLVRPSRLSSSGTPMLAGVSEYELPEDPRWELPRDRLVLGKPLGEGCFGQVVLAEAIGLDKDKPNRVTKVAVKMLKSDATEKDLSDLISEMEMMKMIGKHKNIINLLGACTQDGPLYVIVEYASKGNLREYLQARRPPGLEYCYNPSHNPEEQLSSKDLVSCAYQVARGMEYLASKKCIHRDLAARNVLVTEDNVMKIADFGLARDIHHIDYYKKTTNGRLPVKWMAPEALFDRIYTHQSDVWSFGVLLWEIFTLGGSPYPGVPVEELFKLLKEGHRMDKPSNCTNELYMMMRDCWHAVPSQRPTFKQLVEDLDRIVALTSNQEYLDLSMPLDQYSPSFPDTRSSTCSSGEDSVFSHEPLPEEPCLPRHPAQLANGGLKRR
property-measured: pIC50
Give bare numbers, as −log10 of the molar value.

Below: 2 compounds and their reported pIC50.
C#CCNc1ccc(C(=O)Nc2cc(CCc3cccc(OC)c3)n[nH]2)nc1 ... 6.18
COc1cccc(CCc2cc(NC(=O)c3ccc(N4CCOCC4)nc3)[nH]n2)c1 ... 7.57

Go through the list and state pIC50 for each entry.
1. COc1cccc(CCc2cc(NC(=O)c3ccc(NC=O)cn3)[nH]n2)c1
2. COc1cc(CCc2cc(NC(=O)c3cccc(N4CCOCC4)c3)n[nH]2)cc(OC)c1
3. COc1ccc(OC)c(CCc2cc(NC(=O)c3ccc(N4CCN(C)CC4)cc3)[nH]n2)c1
4. COc1cccc(CCc2cc(NC(=O)c3ccc(-c4cnco4)cc3)[nH]n2)c1
5. COc1cccc(CCc2cc(NC(=O)c3ccc(N4CCN(S(C)(=O)=O)CC4)cc3)n[nH]2)c1
6. COc1cc(CCc2cc(NC(=O)c3cnc(N4CCN(C)CC4)nc3)[nH]n2)cc(OC)c1
7. COc1cccc(CCc2cc(NC(=O)c3cnc(C)cn3)[nH]n2)c1

A.
1: 6.06; 2: 6.15; 3: 6.33; 4: 5.92; 5: 6.60; 6: 6.93; 7: 6.12

// each listed compound needs a value for pIC50
1. COc1cccc(CCc2cc(NC(=O)c3ccc(-n4cncn4)cc3)[nH]n2)c1
2. COc1cc(CCc2cc(NC(=O)c3ccc(CN4CCC(F)CC4)cc3)[nH]n2)cc(OC)c1

A.
1. 6.18
2. 7.20

* * *

target: His6-tagged FGFR kinase domain (Homo sapiens, UniProt P11362, C488A/C584S); construct: FGFR kinase domain (amino acids 458-765, C488A, C584S) N-terminally fused to a His6-tag and TEV cleavage site; His6-tag plus linker and TEV cleavage site (printed as X1); made in house; test: FGFR Kinase assay - Elisa; assay type: biochemical; details: footnote example; read-out: FGFR Kinase assay - Elisa, value in table footnote
Sequence (P11362 458-765 C488A/C584S): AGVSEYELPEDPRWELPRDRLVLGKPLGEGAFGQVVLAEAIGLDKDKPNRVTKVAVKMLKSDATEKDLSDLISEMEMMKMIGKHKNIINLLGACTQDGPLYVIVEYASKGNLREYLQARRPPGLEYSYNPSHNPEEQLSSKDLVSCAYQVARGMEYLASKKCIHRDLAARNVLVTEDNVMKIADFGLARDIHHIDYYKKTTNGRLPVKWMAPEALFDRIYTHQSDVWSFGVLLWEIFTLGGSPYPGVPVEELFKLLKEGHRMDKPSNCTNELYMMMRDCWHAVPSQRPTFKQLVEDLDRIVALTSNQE
property-measured: IC50 (nM)
Give bare numbers, in nM.

Q. GET /values?readout=IC50&item= COc1cccc(CCc2cc(NC(=O)c3ccc(OC)nc3)[nH]n2)c1 [Example 14]
A. 732

* * *

Hi there, I'd appreciate the recorded IC50 for every entry that follows.
target: His6-tagged FGFR kinase domain (Homo sapiens, UniProt P11362, C488A/C584S); construct: FGFR kinase domain (amino acids 458-765, C488A, C584S) N-terminally fused to a His6-tag and TEV cleavage site; His6-tag plus linker and TEV cleavage site (printed as X1); made in house; experiment: FGFR Kinase assay - Elisa; format: biochemical; settings: FGFR inhibition test, Elisa; read-out: Activity class (FGFR Kinase assay - Elisa)

Some compounds with recorded IC50:
COc1cc(COc2cc(NC(=O)c3ccc(N4CCN(C)CC4)cc3)[nH]n2)cc(OC)c1 ... < 300 nM
COc1cccc(CCc2cc(NC(=O)c3ccc(C)nc3)[nH]n2)c1 ... 300 to 1000 nM
COc1cc(CCc2cc(NC(=O)c3ccc(N4CCN(C)CC4)cc3)[nH]n2)cc(OC)c1 ... < 300 nM

The record that follows has no IC50 shown yet.
Q. Provide the documented IC50 with His6-tagged FGFR kinase domain (Homo sapiens, UniProt P11362, C488A/C584S) as the system for COc1cccc(CCc2cc(NC(=O)c3ccc(N4CCN(C)CC4)cc3)[nH]n2)c1
A. < 300 nM
